Tested on: SK-MEL-28 melanoma
ASSAY PROTOCOL: NCI-60 one-dose screen, 48 h (100 = growth as untreated, 0 = no growth, -100 = all killed)
APPLIED CONDITIONS: 10 µM unless noted
Method: Growth inhibition of the SK-MEL-28 human tumor cell line is measured as a screen for anti-cancer activity. Cells are grown in 96 well plates and exposed to the test compound for 48 hours. Compounds are tested at a single concentration, which is 10^-5 M for most compounds. The reported endpoint is percent growth (GI% or GIPRCNT), where numbers from 0 - 100% represent growth inhibition, and numbers from -100% - 0 represent cell death. For example, a value of 40 represents 60% growth inhibition. […]
The panel holds about 83,000 compounds, 20% with a hit somewhere; the sample as a whole holds those more often.
Quick list: growth per entry.

{"columns": ["MOLECULE", "growth / %"],
 "data": [
  ["CCCc1cc(CCC)n2nc(N)nc2n1", 105],
  ["CC1=NC(=S)NC(c2ccccc2)/C1=C1/CC(c2ccccc2O)NN1 (centres undefined)", 104],
  ["CN1CCN(Cn2nc(-c3cc(Cl)cc(Cl)c3Cl)oc2=S)CC1", 110],
  ["CC(C)=CC(=O)C1C(=O)c2ccccc2C1=O", 108],
  ["Cc1ccc(C2=Nc3c(N)nc(N)nc3NC(c3cccc(Nc4ccnc5cc(C(F)(F)F)ccc45)c3)C2)cc1 (centres undefined)", 66.8],
  ["CC(Cc1cccc2ccccc12)C(N)=O (centres undefined)", 108],
  ["Cn1cc(-c2ccc3c(Nc4cccc(NC(=O)Nc5cccc(F)c5)c4)ncnc3c2)cn1", 49.6],
  ["Fc1ccc(/C=C/c2cc(/C=C/c3ccc(F)cc3)n(-c3cc(F)cc(F)c3)n2)cc1", 101],
  ["N/C(=N\\c1nc2ccccc2s1)NC(=O)Nc1ccccc1", 72.3]
]}
